# ASSAY PROCEDURE: Neuroprotective activity against tetracycline removal-induced cytotoxicity in human MC65 cells assessed as increase in cell viability incubated for 72 hrs by MTT assay
# Assay type: functional, cell-based
# CONDITION: MC65, 72 h
Documented pEC50 across a set of molecules
Note: pEC50 values are expressed as the negative base-10 logarithm of concentration in M.

Request: Output pEC50 of `COc1cc(/C=C/C(=O)C(Cc2cn(CCC(=O)NCCCN3CCN(CCCNC(=O)CCN4CCN(CCCO[C@H]5CC[C@@]6(C)C(=CC[C@H]7[C@@H]8CC[C@H]([C@H](C)CCCC(C)C)[C@@]8(C)CC[C@@H]76)C5)CC4)CC3)nn2)C(=O)/C=C/c2ccc(O)c(OC)c2)ccc1O`
Response: 6.87

Request: Output pEC50 of `COc1cc(/C=C/C(=O)C(Cc2cn(CCC(=O)NCCCN3CCN(CCCNC(=O)CCC(=O)NCCCN4CCN(CCCNC(=O)CO[C@H]5CC[C@@]6(C)C(=CC[C@H]7[C@@H]8CC[C@H]([C@H](C)CCCC(C)C)[C@@]8(C)CC[C@@H]76)C5)CC4)CC3)nn2)C(=O)/C=C/c2ccc(O)c(OC)c2)ccc1O`
Response: 6.99

###

# ASSAY PROCEDURE: Neuroprotective activity against tetracycline removal-induced cytotoxicity in human MC65 cells assessed as increase in cell viability incubated for 72 hrs by MTT assay
# Format: functional, cell-based
# CONDITION: MC65, 72 h
Documented pEC50 across a set of molecules
Note: pEC50 values are expressed as the negative base-10 logarithm of concentration in M.

For orientation, consider the following solved cases.
[[record]]
given_smiles = "COc1cc(/C=C/C(=O)C(Cc2cn(CCCCC(=O)NCCCN3CCN(CCCNC(=O)CO[C@H]4CC[C@@]5(C)C(=CC[C@H]6[C@@H]7CC[C@H]([C@H](C)CCCC(C)C)[C@@]7(C)CC[C@@H]65)C4)CC3)nn2)C(=O)/C=C/c2ccc(O)c(OC)c2)ccc1O"
numeric_result = 6.97

[[record]]
given_smiles = "COc1cc(/C=C/C(=O)C(Cc2cn(CCCCNC(=O)CCC(=O)NCCCN3CCN(CCCNC(=O)CCN4CCN(CCCO[C@H]5CC[C@@]6(C)C(=CC[C@H]7[C@@H]8CC[C@H]([C@H](C)CCCC(C)C)[C@@]8(C)CC[C@@H]76)C5)CC4)CC3)nn2)C(=O)/C=C/c2ccc(O)c(OC)c2)ccc1O"
numeric_result = 6.44

[[record]]
given_smiles = "COc1cc(/C=C/C(=O)C(Cc2cn(CCNC(=O)CCC(=O)NCCCN3CCN(CCCNC(=O)CCN4CCN(CCCO[C@H]5CC[C@@]6(C)C(=CC[C@H]7[C@@H]8CC[C@H]([C@H](C)CCCC(C)C)[C@@]8(C)CC[C@@H]76)C5)CC4)CC3)nn2)C(=O)/C=C/c2ccc(O)c(OC)c2)ccc1O"
numeric_result = 6.88

[[record]]
given_smiles = "COc1cc(/C=C/C(=O)C(Cc2cn(CCC(=O)NCCCN3CCN(CCCNC(=O)CO[C@H]4CC[C@@]5(C)C(=CC[C@H]6[C@@H]7CC[C@H]([C@H](C)CCCC(C)C)[C@@]7(C)CC[C@@H]65)C4)CC3)nn2)C(=O)/C=C/c2ccc(O)c(OC)c2)ccc1O"
numeric_result = 7.09

[[record]]
given_smiles = "COc1cc(/C=C/C(=O)C(Cc2cn(CCNC(=O)CCC(=O)NCCCN3CCN(CCCNC(=O)CO[C@H]4CC[C@@]5(C)C(=CC[C@H]6[C@@H]7CC[C@H]([C@H](C)CCCC(C)C)[C@@]7(C)CC[C@@H]65)C4)CC3)nn2)C(=O)/C=C/c2ccc(O)c(OC)c2)ccc1O"
numeric_result = 7.13

[[record]]
given_smiles = "COc1cc(/C=C/C(=O)C(Cc2cn(CCCCC(=O)NCCCN3CCN(CCCNC(=O)CCC(=O)NCCCN4CCN(CCCNC(=O)CO[C@H]5CC[C@@]6(C)C(=CC[C@H]7[C@@H]8CC[C@H]([C@H](C)CCCC(C)C)[C@@]8(C)CC[C@@H]76)C5)CC4)CC3)nn2)C(=O)/C=C/c2ccc(O)c(OC)c2)ccc1O"
numeric_result = 6.98

[[record]]
given_smiles = "COc1cc(/C=C/C(=O)C(Cc2cn(CCCCC(=O)NCCCN3CCN(CCCNC(=O)CCN4CCN(CCCO[C@H]5CC[C@@]6(C)C(=CC[C@H]7[C@@H]8CC[C@H]([C@H](C)CCCC(C)C)[C@@]8(C)CC[C@@H]76)C5)CC4)CC3)nn2)C(=O)/C=C/c2ccc(O)c(OC)c2)ccc1O"
numeric_result = 6.62


Let us examine a further case.
Request: Output pEC50 of `COc1cc(/C=C/C(=O)C(Cc2cn(CCCCNC(=O)CCC(=O)NCCCN3CCN(CCCNC(=O)CO[C@H]4CC[C@@]5(C)C(=CC[C@H]6[C@@H]7CC[C@H]([C@H](C)CCCC(C)C)[C@@]7(C)CC[C@@H]65)C4)CC3)nn2)C(=O)/C=C/c2ccc(O)c(OC)c2)ccc1O`
Response: 6.85
